# System Under Test: T1, cyno TF ECD-His (cTF-his) (monkey (cyno))
# T1 construct: also called bio-cTF-his; monkey TF-His protein
# T1 chain: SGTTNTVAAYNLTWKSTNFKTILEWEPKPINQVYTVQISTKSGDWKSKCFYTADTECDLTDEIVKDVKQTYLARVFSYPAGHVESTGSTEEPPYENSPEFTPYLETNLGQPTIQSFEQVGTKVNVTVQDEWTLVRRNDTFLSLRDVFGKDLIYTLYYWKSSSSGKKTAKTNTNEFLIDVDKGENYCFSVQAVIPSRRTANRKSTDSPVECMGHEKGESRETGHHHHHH
# Assay Protocol: SPR Biacore T200, antibody on Protein A chip, TF-His as analyte, 1:1 model
Measured Attribute: koff (s⁻¹)
Give the quantity in s⁻¹, number only.

Some solved cases for reference:
{"columns": ["Binder", "koff [s⁻¹]"],
 "data": [
  ["hu10H10-53 (antibody, V domains shown, H11+L6; Full-length IgG) VH: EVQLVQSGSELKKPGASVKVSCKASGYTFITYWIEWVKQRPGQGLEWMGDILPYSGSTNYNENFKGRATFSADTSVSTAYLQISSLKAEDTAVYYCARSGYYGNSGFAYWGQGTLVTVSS VL: DIQMTQSPSSLSASVGDRVTITCKSSQSLLSSSNQKNYLTWYQQKPGKAPKLLIYWASTREEGVPSRFSGSGSGTDFTLTISSLQPEDFATYYCQNDYTYPLTFGQGTKLEIK", "6.77e-05"],
  ["hu67-15 (antibody, human IgG1, kappa, V domains shown) VH: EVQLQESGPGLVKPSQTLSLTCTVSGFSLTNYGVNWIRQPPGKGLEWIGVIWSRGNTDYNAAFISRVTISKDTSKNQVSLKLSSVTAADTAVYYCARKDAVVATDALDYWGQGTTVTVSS VL: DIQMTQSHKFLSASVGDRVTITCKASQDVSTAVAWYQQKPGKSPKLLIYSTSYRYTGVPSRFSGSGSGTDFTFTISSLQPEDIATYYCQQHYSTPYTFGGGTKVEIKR", 0.000419],
  ["hu67-7 (antibody, human IgG1, kappa, V domains shown) VH: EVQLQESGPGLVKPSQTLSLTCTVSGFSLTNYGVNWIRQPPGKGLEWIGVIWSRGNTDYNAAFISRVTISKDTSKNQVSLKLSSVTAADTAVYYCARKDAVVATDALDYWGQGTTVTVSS VL: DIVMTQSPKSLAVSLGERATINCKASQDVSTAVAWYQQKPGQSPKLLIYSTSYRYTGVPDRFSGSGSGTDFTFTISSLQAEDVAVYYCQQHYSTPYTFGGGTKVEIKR", 0.00036],
  ["hu67-13 (antibody, human IgG1, kappa, V domains shown) VH: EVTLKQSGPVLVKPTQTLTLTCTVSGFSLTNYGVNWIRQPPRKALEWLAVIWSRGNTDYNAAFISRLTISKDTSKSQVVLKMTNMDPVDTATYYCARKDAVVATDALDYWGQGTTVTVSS VL: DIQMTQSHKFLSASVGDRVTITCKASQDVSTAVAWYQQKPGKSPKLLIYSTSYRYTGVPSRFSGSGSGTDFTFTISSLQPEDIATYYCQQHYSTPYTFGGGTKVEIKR", 0.000344],
  ["hu67-4 (antibody, human IgG1, kappa, V domains shown) VH: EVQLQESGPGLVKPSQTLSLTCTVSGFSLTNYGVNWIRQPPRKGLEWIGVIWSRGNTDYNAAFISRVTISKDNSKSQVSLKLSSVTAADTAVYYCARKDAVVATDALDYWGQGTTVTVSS VL: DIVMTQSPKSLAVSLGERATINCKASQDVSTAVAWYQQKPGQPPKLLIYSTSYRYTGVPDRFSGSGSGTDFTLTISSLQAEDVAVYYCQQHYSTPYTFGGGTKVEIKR", 0.000523]
]}

Per the record, hu67-1 (antibody, human IgG1, kappa, V domains shown) VH: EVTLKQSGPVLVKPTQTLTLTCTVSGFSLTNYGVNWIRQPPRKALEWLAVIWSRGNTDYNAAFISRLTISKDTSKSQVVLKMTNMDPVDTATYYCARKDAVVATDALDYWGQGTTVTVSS VL: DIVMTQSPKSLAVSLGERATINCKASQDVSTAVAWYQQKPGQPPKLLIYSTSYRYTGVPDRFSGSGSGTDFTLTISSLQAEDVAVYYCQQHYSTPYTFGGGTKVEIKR has koff of 0.000358

Per the record, hu67-11 (antibody, human IgG1, kappa, V domains shown) VH: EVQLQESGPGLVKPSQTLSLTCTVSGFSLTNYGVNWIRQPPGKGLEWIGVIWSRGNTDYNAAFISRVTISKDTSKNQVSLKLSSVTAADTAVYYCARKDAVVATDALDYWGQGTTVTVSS VL: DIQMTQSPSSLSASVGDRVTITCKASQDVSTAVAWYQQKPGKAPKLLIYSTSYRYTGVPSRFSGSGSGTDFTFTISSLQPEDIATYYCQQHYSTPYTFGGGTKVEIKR has koff of 0.000243

Per the record, hu67-5 (antibody, human IgG1, kappa, V domains shown) VH: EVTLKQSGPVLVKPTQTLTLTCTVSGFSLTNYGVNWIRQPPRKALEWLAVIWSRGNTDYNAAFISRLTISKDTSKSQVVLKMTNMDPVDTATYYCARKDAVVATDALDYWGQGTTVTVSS VL: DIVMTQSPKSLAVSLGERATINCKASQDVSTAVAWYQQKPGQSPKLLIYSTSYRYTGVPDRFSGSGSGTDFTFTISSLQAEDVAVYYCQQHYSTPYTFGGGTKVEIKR has koff of 0.00039

Per the record, chimeric antibody CH67 (antibody, human IgG1, kappa, V domains shown, Murine 67# variable regions + human constant regions) VH: QVQLKQSGPGLVQPSQSLSITCIVSGFSLTNYGVNWVRQSPRKGLEWLGVIWSRGNTDYNAAFISRLIISKDNSKSQVFLKMNRLQADDTAIYYCARKDAVVATDALDYWGQGTSVTVSS VL: DIVMTQSHKFMSTSLGDRVSITCKASQDVSTAVAWYQQKPGQSPKLLIYSTSYRYTGVPDRFTGSGSGTDFTFTISSVQAEDLAVYYCQQHYSTPYTFGGGTKLEIKR has koff of 0.000473

Per the record, hu10H10-29 (antibody, V domains shown, H11+L1; Full-length IgG) VH: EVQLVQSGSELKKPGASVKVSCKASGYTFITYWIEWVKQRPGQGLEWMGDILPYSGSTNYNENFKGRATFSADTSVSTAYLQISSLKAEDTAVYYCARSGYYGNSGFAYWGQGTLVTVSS VL: DIQMTQSPSSLSASVGDRVTITCKSSQSLLSSGNQKNYLTWYQQKPGKAPKLLIYWASTRESGVPSRFSGSGSGTDFTLTISSLQPEDFATYYCQNDYTYPLTFGQGTKLEIK has koff of 9.83e-05
